- Tested on: XF498
- assay_summary: NCI tumour cell line growth inhibition, 48 h
Calls of active or inactive are those of the source. No stated cut-off is given here; in the data, active = GI50 up to about 1.1 µM and inactive = higher.
readout: GI50

Field: example entries. Status: answers known.
[[record]]
compound = "CC1=NN(C(=O)c2ccc(Cl)cc2)C(=O)/C1=C/c1ccc(Cl)cc1"
readout = "GI50"
measured_value = "> 100 µM (inactive)"

[[record]]
compound = "COP1(=O)CC2C(Cl)(Cl)C2(C)C1 (stereo not given)"
readout = "GI50"
measured_value = "> 100 µM (inactive)"

[[record]]
compound = "CC(=O)NNc1nc(C)c(C(/C=C/c2ccc(Cl)cc2)=N/NC(=S)NN)s1"
readout = "GI50"
measured_value = "> 100 µM (inactive)"

[[record]]
compound = "COC(=O)CCC(=O)N1CC1C (stereo not given)"
readout = "GI50"
measured_value = "> 100 µM (inactive)"


Now, please, on to the next compound.
Would you kindly share the measured GI50 for COc1ccc2c3c(n(Cc4ccccc4)c(=O)c2c1)-c1cc(OC)c(OC)cc1C3C (stereo not given) ? 7.96 µM (inactive)

Data origin, for the record: ChEMBL document CHEMBL1201862
